Eos by entry:
Species on record: Rattus norvegicus
TEST: Open TG-GATES - Regimen: Single
Assay type: toxicity, organism-based, Sprague-Dawley
Design: regimen Single, gender Male, age 6 weeks
CONDITION CONTEXT: in vivo, po, 100 mg/kg, 24 h, tissue Blood, route gavage, dose level Low
VALUE KIND: Eos (%)

COMPOUND | VALUE KIND | EXPERIMENTAL RESULT
Clc1ccccc1CN1CCc2sccc2C1 | Eos | 1
C[C@H](CS)C(=O)N1CCC[C@H]1C(=O)O | Eos | 1.4
O=C(O)c1cn(C2CC2)c2cc(N3CCNCC3)c(F)cc2c1=O | Eos | 1
O=C(O)c1cc(/N=N/c2ccc(S(=O)(=O)Nc3ccccn3)cc2)ccc1O | Eos | 1
CCc1cc(C(N)=S)ccn1 [ETHIONAMIDE] | Eos | 1.2
